Source of measurements: patent US8067447B2

In this section we review reported Ki values for a set of molecules.
- MEASURED_ON: human full-length glucocorticoid receptor (Homo sapiens)
- Construct: a cell lysate containing recombinantly expressed human full-length glucocorticoid receptor; purchased PanVera Co., Madison, Wis; P2816
- Sequence (P04150 whole entry): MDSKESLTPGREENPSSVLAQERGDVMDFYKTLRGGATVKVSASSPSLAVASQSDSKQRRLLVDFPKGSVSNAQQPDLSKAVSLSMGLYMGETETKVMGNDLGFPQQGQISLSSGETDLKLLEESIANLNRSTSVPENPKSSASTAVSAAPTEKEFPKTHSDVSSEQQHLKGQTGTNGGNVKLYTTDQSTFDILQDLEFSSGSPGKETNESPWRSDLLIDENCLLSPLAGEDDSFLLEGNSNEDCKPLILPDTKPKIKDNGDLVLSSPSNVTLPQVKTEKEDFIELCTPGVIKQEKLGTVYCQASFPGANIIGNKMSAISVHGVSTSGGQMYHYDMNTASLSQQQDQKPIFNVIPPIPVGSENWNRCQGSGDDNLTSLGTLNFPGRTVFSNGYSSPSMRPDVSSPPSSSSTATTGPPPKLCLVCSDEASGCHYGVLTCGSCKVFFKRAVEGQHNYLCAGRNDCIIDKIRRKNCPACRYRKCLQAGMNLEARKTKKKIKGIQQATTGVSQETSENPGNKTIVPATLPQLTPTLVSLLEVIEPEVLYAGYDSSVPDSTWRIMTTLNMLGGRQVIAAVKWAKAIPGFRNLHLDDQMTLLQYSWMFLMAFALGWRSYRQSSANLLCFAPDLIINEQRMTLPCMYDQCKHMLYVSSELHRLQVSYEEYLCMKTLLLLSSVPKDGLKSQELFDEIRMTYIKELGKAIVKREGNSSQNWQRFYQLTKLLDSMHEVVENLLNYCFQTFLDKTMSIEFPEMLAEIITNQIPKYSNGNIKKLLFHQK
- ASSAY_NAME: Glucocorticoid Receptor Binding Assay (II), fluorescence polarization competitor kit (Fluormone GS1)
- CONDITION_DETAILS: cell lysate with recombinant human full-length GR, 1 nM Fluormone GS1, FP
QUANTITY_NAME: Ki (nM)

In [3]: df
Out[3]:
                                    molecule  reading
 0  CN(C)C(=O)c1cc(F)ccc1-n1ncc2cc([C@H](c3ccccc3)C(C)(C)C(=O)Nc3nncs3)ccc21 [Example 158]      825
 1  CC(C)(C(=O)NC1CCCC1O)C(Cc1ccccc1)c1ccc2c(cnn2-c2ccc(F)cc2)c1 (single isomer, unassigned) [Example 124-isomerC]      2.1
 2  CC(C)(C(=O)Nc1nncs1)C(c1cccc(F)c1)c1ccc2c(cnn2-c2ccc(F)cc2)c1 (stereo not drawn) [Example 52]      1.3
 3  COC(=O)c1ccc(-n2ncc3cc(C(c4ccccc4)C(C)(C)C(=O)Nc4nncs4)ccc32)cc1 (stereo not drawn) [Example 88]       26
 4  CCC(CC)(C(=O)Nc1nncs1)C(c1ccccc1)c1ccc2c(cnn2-c2ccc(F)cc2)c1 (stereo not drawn) [Example 149]      4.7
 5  Cc1cc2c(cnn2-c2ccc(F)cc2)cc1CC(C)C(=O)Nc1nncs1 (stereo not drawn) [Example 106]        1
 6  CC(C)=CC(c1ccc2c(cnn2-c2ccc(F)cc2)c1)C(C)(C)C(=O)Nc1nncs1 (stereo not drawn) [Example 56]      1.3
 7  CC(CO)(C(=O)Nc1nncs1)C(c1ccccc1)c1ccc2c(cnn2-c2ccc(F)cc2)c1 (stereo not drawn) [Example 155]      4.3
 8  O=C(Nc1nncs1)C(Cc1ccccc1)C(c1ccccc1)c1ccc2c(cnn2-c2ccc(F)cc2)c1 (stereo not drawn) [Example 146]      1.5
 9  CC(C)(CC(=O)Nc1nccs1)c1ccc2c(cnn2-c2ccc(F)cc2)c1 [Example 114]       11
10  COc1cc(F)ccc1-n1ncc2cc([C@H](c3ccccc3)C(C)(C)C(=O)Nc3nncs3)ccc21 [Example 96]      3.1
11  CC(C)(C(=O)NC1CCCC1O)C(C)(C)c1ccc2c(cnn2-c2ccc(F)cc2)c1 (stereo not drawn) [Example 121]      8.3
12  O=C(Nc1nncs1)C(c1ccccc1)C(c1ccccc1)c1ccc2c(cnn2-c2ccc(F)cc2)c1 (single isomer, unassigned) [Example 145-isomerA]       18
13  Cc1ccc(CC(c2ccc3c(cnn3-c3ccc(F)cc3)c2)C(C)(C)C(=O)Nc2nccs2)cc1 (stereo not drawn) [Example 126]      6.8
14  CC(C(=O)Nc1nncs1)C(c1ccccc1)c1ccc2[nH]ncc2c1 (single isomer, unassigned) [151-diast A]      1.6
